- measurement notes: Nitroreductase enzyme assay with CB 1954 as substrate (HPLC)
- Format: biochemical
measured quantity: reduction of CB1954: activity and product formed

Bam YwrO: nitroreductase from B. amyloliquefaciens, SEQ ID NO: 2 (protein, listed as Bacillus amyloliquefaciens) VKVLVLAVHPDMENSAVNKAWAEELKKHDELTVRELYKEYPDGQIDAEKERQLCEQYDRIVFQFPLYWYSAPPLLKTWMDHVLSYGWAYGSKGKALHGKELMLAVSVGAGEDAYQAGGSNHFTLSELLRPFQAMANFTGMTYLPAFALYGVNGADATDIHDNAKRLAAYIKKSF; 4HX product only

Reference source for all entries: patent US20040014191A1
